Exercise: state measured growth inhibition for each of the compounds provided.
Experiment: NCI Yeast Anticancer Drug Screen. Data for the mec2-1 strain (AID 157)
Conditions: S. cerevisiae mec2-1 strain, at 50.0 µM, hits give high values
About 79,000 compounds went through this panel and 15% of them were active in at least one assay; those are over-represented in the sample as a whole.
Give the number; % is assumed, so skip it.

Please give the measured growth inhibition for this compound: `Cn1c(=O)c2ccccc2c2cc(Br)ccc21`
6.05

Ok, now CC(OC1CC(=O)CC2C(=O)C=CC(=O)C12)c1ccccc1 (stereo not drawn)
21.8

Input `CN1C(=O)C(=O)n2c(cc3ccccc32)C1=O`
6.15

Next compound up: CC1CC=CCC1(C(=O)O)C(=O)O (stereo not drawn)
10.1

Moving on to the next compound: `Cc1cc(C(N)=O)no1`
-2.55

Lookup `Brc1cncc(Br)c1`
-9.35

Then this compound: `O=C1/C(=C/c2ccccc2)Oc2cc(O)ccc21`
-13.8

Moving on to `Nc1nc(N)c2nc(-c3ccc([N+](=O)[O-])cc3)c(=O)[nH]c2n1`
-8.5

Moving on to O=C1CC(C(=O)O)Cc2c(Br)ccc(O)c21 (stereo not drawn)
13.8

Queued: CCCOCC(O)CNCCNCC(O)COCCC (stereo not drawn)
-2.7

Moving on to the next compound: `CCN(CC)CCn1cnc(C#N)c1N`
1.05

Would you mind doing `CCOc1nc(N)nc(C)c1N=Nc1cccc([N+](=O)[O-])c1` as well?
8.55

What do you have for `COC(=O)c1cc2ccc1OCC#CC#CCOc1ccc(cc1C(=O)OC)OCC#CC#CCO2` ?
5.5

Measured values drawn from PubChem BioAssay (NCI) for this set.
